Test system: SF-295 CNS
Assay Details: NCI tumour cell line growth inhibition, 48 h; in the data active means GI50 below about 0.43 µM; inactive means the rest
Assign a class; possible classes are active, inactive

The examples below pair each entry with its known result.
> print(dat)
                                   compound     label
1                  Nc1ccc2cc3ccc(N)cc3nc2c1  inactive
2  COc1cccc2c(=O)c3c(sc12)c(N1CCNCC1)nc1ccccc13  inactive
3  CCOc1cc(C(C)(C)C)ccc1C1=N[C@@](C)(c2ccc(Cl)cc2)[C@@](C)(c2ccc(Cl)cc2)N1C(=O)N1CCN(CCCS(C)(=O)=O)CC1  inactive
4  Cc1ccc(-c2nc3ccc(Cl)cc3c(=O)n2N2C(=O)CSC2c2ccccc2Cl)cc1 (stereo not given)  inactive

Assay result, entry `COc1cc(C(=O)c2cc(C)c3[nH]c4ccc(C)cc4c3c2C)cc(OC)c1OC` — outcome?
active

Same thing, different compound: `CC(C)(C[C@H]1CN(S(=O)(=O)c2cccc(C(F)(F)F)c2)c2cc(-c3cc(F)cc(OC(F)F)c3)ccc2O1)C(=O)O`
inactive

Let us now turn to `Cn1c(=O)c(Cc2ccccc2F)cc2cnc(NC3CCOCC3)nc21`
inactive

Then this compound: `CN(C)C(=O)[C@H](O)[C@H](Cc1ccccc1)NC(=O)c1cc2cc(Cl)ccc2[nH]1`
inactive

----------
Test system: OVCAR-4 ovarian
Assay Details: NCI tumour cell line growth inhibition, 48 h
Value Kind: TGI

Recorded results for 3 compounds are shown here.
> print(dat)
                                   compound  observed.value
1  C=CCOc1ccc(C2(O)c3ccccc3C3=NCCCN32)cc1 (stereo not given)        > 100 µM
2  COc1ccc(-c2nn(-c3ccc(NC(=O)Nc4cc(C(F)(F)F)cc(C(F)(F)F)c4)cc3)cc2-c2ccncc2)cc1Cl         60.7 µM
3  Clc1ccc(C=Nc2ccc3c(c2)Cc2ccccc2-3)c(Cl)c1        > 100 µM

Then there is this compound:
Suppose we examine the compound `O=c1oc2ccc([N+](=O)[O-])cc2c(Nc2ccc3c(c2)Oc2ccccc2O3)c1[N+](=O)[O-]` ; what TGI value has been reported?
> 100 µM

----------
Tested on: MDA-MB-231 breast
Assay Details: NCI tumour cell line growth inhibition, 48 h
As shown below, each of these compounds has a reported TGI value.
# unit: µM | format: bare number

Use these answered entries as a reference point.
Compound	TGI [µM]
Br[C](Br)(Br)[Hg][c]1ccccc1	41.3
COC1C=COC2(C)Oc3c(C)c(O)c4c(O)c(c(C5SCCS5)c(O)c4c3C2=O)NC(=O)C(C)=C/C=C\C(C)C2OC(C)(C)OC(C2C)C(C)C(OC(C)=O)C1C (configuration not stated)	45.7
O=c1oc2ccc([N+](=O)[O-])cc2c(Nc2ccc3c(c2)Oc2ccccc2O3)c1[N+](=O)[O-]	37
CC1(C)[C@@H](OC(N)=O)[C@H]2O[C@H]2[C@]2(C=O)[C@H]3CC[C@]4(C)[C@@H](c5ccc(=O)oc5)[C@@H](Cl)C[C@]4(O)C3=CC[C@@H]12	0.0556
N#CC1=C(N)N(c2ccccc2)C(c2ccccc2)C1(C#N)C#N (configuration not stated)	29.8

What TGI value was documented for this compound, `CC(C)(C[C@H]1CN(S(=O)(=O)c2cccc(C(F)(F)F)c2)c2cc(-c3cc(F)cc(OC(F)F)c3)ccc2O1)C(=O)O` ?
34

Here is the next compound: `O=C1c2cccnc2-c2nccc3c2c1nc1cc(Br)ccc13`
0.876

And the next one, `COc1cccc2c(=O)c3c(sc12)c(N1CCNCC1)nc1ccccc13` ?
3.32

Then `NNC(=O)CSc1nc2ccccc2c(=O)n1N` ?
61.2

Next compound up: `CC(C)C[C@H](NC(=O)/C=C/Cn1ccc2ccccc2c1=O)B(O)O`
8.14

Can you check `COc1cc(/C=C/c2cc(/C=C/c3ccc(O)c(OC)c3)n(C(=O)Nc3ccc(C)cc3C)n2)ccc1O` next?
6.01

----------
Parameter TGI: see the listing below.
Test system: SF-268 CNS
Assay Details: NCI tumour cell line growth inhibition, 48 h

> print(dat)
                                   molecule  assayed.system  observed.value
1  CC12CCC(O)CC1CCC1C2CCC2(C)C(C(=O)CC(O)C(F)(F)F)CCC12 (stereo not given)      SF-268 CNS        > 100 µM
2         O=c1c2cc(Br)cc(Br)c2nc(CCCl)n1CCO      SF-268 CNS        > 100 µM
3  C=C1C(=O)OC2/C=C(\COC(C)=O)CCC(OC(C)=O)C3=CC(OC3=O)C12 (stereo not given)      SF-268 CNS           50 µM
4  COc1cc2[nH]c(C(=O)c3cc(OC)c(OC)c(OC)c3)c(N)c2cc1C#CC1CC1      SF-268 CNS        > 100 µM

SF-268 CNS / TGI / COc1ccc2c(c1)CCN1CCc3ccccc3CC21 (stereo not given) : value?
> 100 µM

----------
We begin with a simple list: items and their reported GI50.
System: CCRF-CEM leukemia
Assay Details: NCI tumour cell line growth inhibition, 48 h

> print(dat)
                                   compound  value.kind  observed.value
1  CC1=C(C(=O)Nc2ccc(F)c(Cl)c2)C(c2cccc(O)c2)NC(=O)N1 (stereo not drawn)        GI50        79300 nM

Field: GI50 (CCRF-CEM leukemia). Entry: `COc1cc(C(=O)c2cc(C)c3[nH]c4ccc(C)cc4c3c2C)cc(OC)c1OC`
< 10 nM

Next record, please: `O=C(N/N=C/c1cc(Br)cc(Br)c1[O-])c1ccccc1O.O=C(N/N=C/c1cc(Br)cc(Br)c1[O-])c1ccccc1O.[Cu+2]`
446 nM

----------
System: XF 498 CNS
Assay Details: NCI tumour cell line growth inhibition, 48 h
Measured TGI of individual entries

Please review the following examples before continuing.
> print(dat)
                                    compound  value.kind  observed.value
 1  Nc1ccn(C2OC(CO)C(O)C2O)c(=O)c1 (stereo unspecified)         TGI     < 0.0625 µM
 2  CC(=O)[C@@]1(O)CC[C@H]2[C@@H]3C[C@H](C)C4=CC(=O)C=C[C@]4(C)[C@@]3(F)[C@@H](O)C[C@@]21C         TGI        > 100 µM
 3  O=C1OC2CCCC[C@@H]2C2C[C@]34CCCCC3[C@@H](C(=O)O4)C12 (stereo partly specified)         TGI        > 100 µM
 4         O=c1c2cc(Br)cc(Br)c2nc(CCCl)n1CCO         TGI        > 100 µM
 5  CC(C)(C)c1cc(C(O)(C(F)(F)F)C(F)(F)F)c2c(c1)C(C(F)(F)F)(C(F)(F)F)OC(C(C)(C)C)N2 (stereo unspecified)         TGI         1.84 µM
 6             CCOC(=O)c1ccc(C)c(N=NN(C)C)c1         TGI        > 100 µM
 7  O=C1NC2OC(C(O)CO)C(O)C2O1 (stereo unspecified)         TGI        > 100 µM
 8  O=C(Nc1c(Cl)cc([N+](=O)[O-])cc1Cl)C(=O)C(C1OC(=O)c2ccccc21)[N+](=O)[O-] (stereo unspecified)         TGI        > 100 µM
 9                  Nc1ccc2cc3ccc(N)cc3nc2c1         TGI          5.8 µM
10  CSC(C1c2ccccc2N(c2ccc(C)cc2)c2[nH]c(=O)n(C)c(=O)c21)S(=O)(=O)c1ccc(C)cc1 (stereo unspecified)         TGI        > 100 µM

Now turn to the next compound.
Look up TGI for this compound: `O=C1CSC(/C(=N/Nc2ccccc2)c2nc3ccccc3[nH]2)=N1`
73.4 µM

----------
Test system: OVCAR-5 ovarian
Assay Details: NCI tumour cell line growth inhibition, 48 h
Value Kind: GI50

// worked examples, GI50 included
> print(dat)
                                   molecule  observed.value
1  CC(C)(C[C@H]1CN(S(=O)(=O)c2cccc(C(F)(F)F)c2)c2cc(-c3cc(F)cc(OC(F)F)c3)ccc2O1)C(=O)O        12600 nM
2  O=S(=O)(Nc1cc(Sc2cccc3cccnc23)c(O)c2ccccc12)c1ccccc1         1990 nM
3  Cc1ccc(-c2nc3ccc(Cl)cc3c(=O)n2N2C(=O)CSC2c2ccccc2Cl)cc1 (centres undefined)     > 100000 nM

Please report the recorded GI50 for `COc1cccc2c(=O)c3c(sc12)c(N1CCNCC1)nc1ccccc13` .
1790 nM

Let us now turn to `CCn1c(SCc2ccc(C)cc2)nnc1-c1nn(-c2ccc(Cl)cc2Cl)c(-c2ccc(Cl)cc2)c1C`
3540 nM

Likewise for `Cc1ccc2[nH]c(O)c(N=Nc3ccc(S(N)(=O)=O)cc3)c2c1` ?
> 25000 nM

// repeat for `COc1cc(/C=C/c2cc(/C=C/c3ccc(O)c(OC)c3)n(C(=O)Nc3ccc(C)cc3C)n2)ccc1O` and report
1510 nM

Lookup `CC(=O)N[C@H]1CSSC[C@@H](C(N)=O)NC(=O)[C@H](C(C)C)NC(=O)[C@H](C)NC(=O)[C@H](Cc2cnc[nH]2)NC1=O`
> 100000 nM

Similarly, `COc1cc(C(=O)c2cc(C)c3[nH]c4ccc(C)cc4c3c2C)cc(OC)c1OC` ?
< 10 nM
